measured-on: Cysteine protease falcipain-3 (Plasmodium falciparum, UniProt Q9NAW4)
assay-info: Inhibition of Plasmodium falciparum cysteine protease falcipain-3
Reported IC50 values for a set of molecules
Your answer should be a plain number; it is taken to be in µM.

input-smiles	unit-of-measure	measurement
O=C(N[C@@H]1CCCC[C@@H]1C(=O)N[C@@H](CCc1ccccc1)C(=O)CO)OCc1ccccc1	µM	0.91
CC(=O)SCC(=O)[C@H](CCc1ccccc1)NC(=O)[C@@H]1C[C@@H](O)CN1C(=O)OCc1ccccc1	µM	3.56
O=C(N[C@H]1CCC[C@H]1C(=O)N[C@@H](CCc1ccccc1)C(=O)CO)OCc1ccccc1	µM	23.9

Query :: // lookup IC50 for O=C(N[C@H]1CCCC[C@H]1C(=O)N[C@@H](CCc1ccccc1)C(=O)CO)OCc1ccccc1
Result :: 0.54

Query :: // lookup IC50 for O=C(CSCCCc1ccccc1)[C@H](CCc1ccccc1)NC(=O)[C@@H]1C[C@@H](O)CN1C(=O)OCc1ccccc1
Result :: 0.52

Query :: // lookup IC50 for O=C1CCC(NC(=O)OCc2ccccc2)(C(=O)N[C@@H](CCc2ccccc2)C(=O)CO)CC1
Result :: 47.2

Query :: // lookup IC50 for O=C(N[C@@H](CCc1ccccc1)C(=O)N[C@@H](CCc1ccccc1)C(=O)CO)OCc1ccccc1
Result :: 11.9

Query :: // lookup IC50 for O=C(N[C@H]1CC=CC[C@H]1C(=O)N[C@@H](CCc1ccccc1)C(=O)CO)OCc1ccccc1
Result :: 20.2

---

measured-on: Falcipain 2 (Plasmodium falciparum, UniProt Q9N6S8)
Sequence (Q9N6S8 whole entry): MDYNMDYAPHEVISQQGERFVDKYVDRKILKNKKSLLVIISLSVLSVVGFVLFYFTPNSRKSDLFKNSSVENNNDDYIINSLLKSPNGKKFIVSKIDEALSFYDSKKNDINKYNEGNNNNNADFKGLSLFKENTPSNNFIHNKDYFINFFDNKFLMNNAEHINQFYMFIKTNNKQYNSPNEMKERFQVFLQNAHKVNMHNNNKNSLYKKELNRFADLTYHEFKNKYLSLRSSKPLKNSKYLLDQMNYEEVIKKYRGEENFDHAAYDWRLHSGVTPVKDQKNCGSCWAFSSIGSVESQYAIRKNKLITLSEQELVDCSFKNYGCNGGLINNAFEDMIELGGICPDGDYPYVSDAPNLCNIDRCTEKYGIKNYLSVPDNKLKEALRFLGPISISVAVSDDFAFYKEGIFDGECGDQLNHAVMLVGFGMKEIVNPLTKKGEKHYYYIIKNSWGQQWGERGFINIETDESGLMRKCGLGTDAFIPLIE
value-kind: IC50 (µM)
Your answer should be a plain number; it is taken to be in µM.

input-smiles	value-kind	measurement
O=C(CSCCCc1ccccc1)[C@H](CCc1ccccc1)NC(=O)[C@@H]1C[C@@H](O)CN1C(=O)OCc1ccccc1	IC50	1.1

Query :: // lookup IC50 for O=C(NC1(C(=O)N[C@@H](CCc2ccccc2)C(=O)CO)CCSCC1)OCc1ccccc1
Result :: 3.25

Query :: // lookup IC50 for CC(=O)OCC(=O)[C@H](CCc1ccccc1)NC(=O)[C@H](CCc1ccccc1)NC(=O)OCc1ccccc1
Result :: 29.7

---

measured-on: Cysteine protease falcipain-3 (Plasmodium falciparum, UniProt Q9NAW4)
Sequence (Q9NAW4 whole entry): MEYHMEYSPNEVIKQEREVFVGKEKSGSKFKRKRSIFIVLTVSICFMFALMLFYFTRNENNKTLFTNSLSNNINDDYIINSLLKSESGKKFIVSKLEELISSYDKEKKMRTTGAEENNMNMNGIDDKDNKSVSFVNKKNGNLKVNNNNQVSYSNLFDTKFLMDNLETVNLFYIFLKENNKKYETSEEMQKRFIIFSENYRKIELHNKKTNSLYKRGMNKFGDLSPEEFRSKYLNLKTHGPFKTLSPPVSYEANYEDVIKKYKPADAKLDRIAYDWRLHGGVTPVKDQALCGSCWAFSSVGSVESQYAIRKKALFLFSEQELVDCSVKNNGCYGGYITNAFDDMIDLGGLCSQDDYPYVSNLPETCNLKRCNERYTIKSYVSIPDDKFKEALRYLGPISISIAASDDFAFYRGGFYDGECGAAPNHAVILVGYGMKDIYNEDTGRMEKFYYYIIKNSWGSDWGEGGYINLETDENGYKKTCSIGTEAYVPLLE
assay-info: Inhibition of Plasmodium falciparum cysteine protease falcipain-3
value-kind: IC50

Sample answers from the record:
compound	measured-on	IC50
CC(=O)OCC(=O)[C@H](CCc1ccccc1)NC(=O)[C@H](CCc1ccccc1)NC(=O)OCc1ccccc1	Cysteine protease falcipain-3 (Plasmodium falciparum, UniProt Q9NAW4)	> 50 µM
O=C(NC1C2C=CC(C2)C1C(=O)N[C@@H](CCc1ccccc1)C(=O)CO)OCc1ccccc1 (stereo not given in full)	Cysteine protease falcipain-3 (Plasmodium falciparum, UniProt Q9NAW4)	25.4 µM
CC(=O)SCC(=O)[C@H](CCc1ccccc1)NC(=O)[C@@H]1CCCN1C(=O)OCc1ccccc1	Cysteine protease falcipain-3 (Plasmodium falciparum, UniProt Q9NAW4)	36.4 µM

Query :: // lookup IC50 for O=C(CO)[C@H](CCc1ccccc1)NC(=O)[C@@H]1C[C@@H](O)CN1C(=O)OCc1ccccc1
Result :: 0.06 µM

Query :: // lookup IC50 for O=C(NC1(C(=O)N[C@@H](CCc2ccccc2)C(=O)CO)CCSCC1)OCc1ccccc1
Result :: 8.22 µM

---

Lab note: IC50 readings collected with Falcipain 2 (Plasmodium falciparum, UniProt Q9N6S8) for the following molecules.

Sample answers from the record:
molecule	value-kind	measurement
O=C(CN1CCOCC1)[C@H](CCc1ccccc1)NC(=O)[C@@H]1C[C@@H](O)CN1C(=O)OCc1ccccc1	IC50	> 50 µM
O=C(N[C@H]1CCC[C@H]1C(=O)N[C@@H](CCc1ccccc1)C(=O)CO)OCc1ccccc1	IC50	> 50 µM
O=C(N[C@@H](CCc1ccccc1)C(=O)N[C@@H](CCc1ccccc1)C(=O)CO)OCc1ccccc1	IC50	30.1 µM
O=C(NC1C2C=CC(C2)C1C(=O)N[C@@H](CCc1ccccc1)C(=O)CO)OCc1ccccc1 (stereo partly drawn)	IC50	33.6 µM
CC(=O)OCC(=O)[C@H](CCc1ccccc1)NC(=O)C1C2C=CC(C2)C1NC(=O)OCc1ccccc1 (stereo partly drawn)	IC50	> 50 µM

Query :: // lookup IC50 for O=C1CCC(NC(=O)OCc2ccccc2)(C(=O)N[C@@H](CCc2ccccc2)C(=O)CO)CC1
Result :: > 50 µM

Query :: // lookup IC50 for O=C(CO)[C@H](CCc1ccccc1)NC(=O)[C@@H]1CCCN1C(=O)OCc1ccccc1
Result :: > 50 µM

Query :: // lookup IC50 for O=C(N[C@@H]1CCCC[C@@H]1C(=O)N[C@@H](CCc1ccccc1)C(=O)CO)OCc1ccccc1
Result :: 4.42 µM

Query :: // lookup IC50 for O=C(N[C@H]1CCCC[C@H]1C(=O)N[C@@H](CCc1ccccc1)C(=O)CO)OCc1ccccc1
Result :: 5.52 µM

Query :: // lookup IC50 for CC(=O)OCC(=O)[C@H](CCc1ccccc1)NC(=O)[C@@H]1Cc2ccccc2CN1C(=O)OCc1ccccc1
Result :: > 50 µM

---

measured-on: Cysteine protease falcipain-3 (Plasmodium falciparum)
Sequence (Q9NAW4 whole entry): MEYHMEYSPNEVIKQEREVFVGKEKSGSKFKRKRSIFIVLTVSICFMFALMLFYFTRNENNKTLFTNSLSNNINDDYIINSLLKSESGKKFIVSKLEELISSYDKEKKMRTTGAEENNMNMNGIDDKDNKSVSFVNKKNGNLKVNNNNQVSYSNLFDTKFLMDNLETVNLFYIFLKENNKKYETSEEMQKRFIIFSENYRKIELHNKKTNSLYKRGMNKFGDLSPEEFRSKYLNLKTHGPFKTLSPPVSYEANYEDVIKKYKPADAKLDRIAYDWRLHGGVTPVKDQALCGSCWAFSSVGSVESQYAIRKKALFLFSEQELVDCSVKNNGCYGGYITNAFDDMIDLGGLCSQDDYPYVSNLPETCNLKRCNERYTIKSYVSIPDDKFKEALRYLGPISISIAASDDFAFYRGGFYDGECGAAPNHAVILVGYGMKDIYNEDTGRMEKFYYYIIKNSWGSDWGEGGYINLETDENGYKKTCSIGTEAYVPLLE
value-kind: IC50

compound	measured-on	IC50
CC1(C)OC[C@@H](C(=O)N[C@@H](CCc2ccccc2)C(=O)CO)N1C(=O)OCc1ccccc1	Cysteine protease falcipain-3 (Plasmodium falciparum)	> 50 µM
O=C(CSCCCc1ccccc1)[C@H](CCc1ccccc1)NC(=O)[C@@H]1CCCN1C(=O)OCc1ccccc1	Cysteine protease falcipain-3 (Plasmodium falciparum)	> 50 µM
CC(=O)OCC(=O)[C@H](CCc1ccccc1)NC(=O)[C@@H]1Cc2ccccc2CN1C(=O)OCc1ccccc1	Cysteine protease falcipain-3 (Plasmodium falciparum)	> 50 µM
CC(=O)OCC(=O)[C@H](CCc1ccccc1)NC(=O)[C@@H]1COC(C)(C)N1C(=O)OCc1ccccc1	Cysteine protease falcipain-3 (Plasmodium falciparum)	> 50 µM
CC(=O)OCC(=O)[C@H](CCc1ccccc1)NC(=O)C1C2C=CC(C2)C1NC(=O)OCc1ccccc1 (some centres undefined)	Cysteine protease falcipain-3 (Plasmodium falciparum)	> 50 µM
CC(=O)OCC(=O)[C@H](CCc1ccccc1)NC(=O)C1(NC(=O)OCc2ccccc2)CCSCC1	Cysteine protease falcipain-3 (Plasmodium falciparum)	> 50 µM
O=C(CO)[C@H](CCc1ccccc1)NC(=O)[C@@H]1Cc2ccccc2CN1C(=O)OCc1ccccc1	Cysteine protease falcipain-3 (Plasmodium falciparum)	> 50 µM
O=C(CO)[C@H](CCc1ccccc1)NC(=O)[C@@H]1CCCN1C(=O)OCc1ccccc1	Cysteine protease falcipain-3 (Plasmodium falciparum)	> 50 µM

Here is the next item to consider.
Query :: // lookup IC50 for O=C(CN1CCOCC1)[C@H](CCc1ccccc1)NC(=O)[C@@H]1C[C@@H](O)CN1C(=O)OCc1ccccc1
Result :: > 50 µM

The reported numbers originate from ChEMBL document CHEMBL3120101.
